Collected residual activity values appear next to each entry.
target desc: Homeodomain-interacting protein kinase 3 (Homo sapiens)
measurement setup: at 1 µM
Quick note: number first, unit second.

Record excerpt, results attached:
COc1cc(OC)c(/C=C2\C(=O)Nc3ccccc32)c(OC)c1    103%
C[S+]([O-])c1ccc(-c2nc(-c3ccc(F)cc3)c(-c3ccncc3)[nH]2)cc1 (stereo not given)    110%
CCn1cnc2c(Nc3cccc(Cl)c3)nc(N[C@@H]3CCCC[C@@H]3N)nc21    99%
COC(=O)[C@@]1(O)C[C@H]2O[C@]1(C)n1c3ccccc3c3c4c(c5c6ccccc6n2c5c31)C(=O)NC4    54%

Give the measured residual activity of O=C1Nc2ccc3ncsc3c2/C1=C/c1c[nH]cn1 .
31%
